Each item that follows carries a reported protein stability index.
EXPERIMENTAL DETAILS: protein stability index of a GFP-peptide fusion (yeast GPS) (PSI 1-4); higher = more stable; sorted into four equal gates, so the index is relative within each strain
MEASUREMENT CONDITIONS: san1∆
MEASURED METRIC: protein stability index

DVKFPSNTTTQIQFTPL [SMC3]	2.98
PQEETITFLIEKAKEMI [ECM29]	2.95
ETGKLLSGLAQRKTNGA [BRN1]	2.97
EAAKPSLSFGSGSAGAN [YJL041W/NSP1]	3.02
LTQEELERIVQIMQNPT [RPS18A]	2.93

* * *

EXPERIMENTAL DETAILS: protein stability index of a GFP-peptide fusion (yeast GPS) (PSI 1-4); higher = more stable; sorted into four equal gates, so the index is relative within each strain
MEASUREMENT CONDITIONS: san1∆
MEASURED METRIC: protein stability index

NDSNPSFSFSIPSKNTP [YLR335W/NUP2]	2.58
KGRAYKRLLYTRRFVNV [RPS30A]	2.81
LDENKWYKFNDDKVSVV [UBP6]	3.06
LLIGCKLDQDDEIYIPI [CSI1]	3.01
NGGKFSKSNLIHNYDSK [RGR1]	3.11
TFENTNNTEKNDVTNKN [SIR4]	2.88
QPPTNVQPTIGQLPQLP [SNF5]	3.09
STKFDYPPMPFDGFLFG [FAS1]	2.68
SIMAVTFKDGVILGADS [PRE3]	2.94
SLDRVAWRTLVGVSHTN [CYT1]	1.34
IVSFIVNCFHEDTELYQ [YJL039C/NUP192]	2.22
RMPMDFKGVIVKIVDKD [PRE1]	3.19
DATANATANATANATAN [DSN1]	3.37
TMGEETAKKDMSSTTPK [SNF12]	3.31
ISIDSWPTTHKYPLGHF [DIS3]	3.04
QVVTTVASQSPHATATE [SNF6]	2.6
LLYELTAFKATVFFLIR [YJL039C/NUP192]	1.82
RNVTIQLENADTGTLDT [RPN2]	3.13
ISSGLLYLQDSNDKFVH [SRB8]	1.25
YSTIRQLVYKRGFGKIN [RPL7A]	2.24
KLKGLMKLNILDERFAS [IRR1]	2.4
SKICLSHFSLDQFITSL [ITC1]	2.17
NNNNSTRPQMPSRTRET [GRR1]	2.95
HKDIPEEDFYTVVGNAS [DSN1]	2.73

* * *

EXPERIMENTAL DETAILS: protein stability index of a GFP-peptide fusion (yeast GPS) (PSI 1-4); higher = more stable; sorted into four equal gates, so the index is relative within each strain
MEASUREMENT CONDITIONS: pdr5∆
MEASURED METRIC: protein stability index

MAFEASAAAAGNRNSSS [BRR2]	3.1
IYEKLKNYLKNYILNFK [CDC53]	1.32
TWEECVFFDDDPLYDIT [REC8]	3.24
EQSNSRKRTRSEAEQID [YCG1]	3.4
QELKLTCVAKKGIAKEH [RPB3]	3.18
SSNASFNNQGKLDLFKY [MED1]	3.03
SSNCHVRQKIKTLKRMI [POP1]	1.75
QTMQLIKNVQDLLILTR [SRB6]	1.8
VPTGGASSAAAGAAGAA [RPP2B]	3.04
DLKFEPQGRQSTTFADC [RPC40]	3.3
TIFSPEGRLYQVEYALE [PRE9]	3.32
HKDIPEEDFYTVVGNAS [DSN1]	2.91

* * *

Each item that follows carries a reported protein stability index.
EXPERIMENTAL DETAILS: protein stability index of a GFP-peptide fusion (yeast GPS) (PSI 1-4); higher = more stable; sorted into four equal gates, so the index is relative within each strain
MEASUREMENT CONDITIONS: pdr5∆
MEASURED METRIC: protein stability index

LKTLTHKQIHTTIFVKS [POP7]	2.07
EDFDVEHFSDEETYEEK [RPO26]	3.05
NIVKLCFVHRYKDVSDL [IRR1]	2.71
MAKFLKAGKVAVVVRGR [RPL27A]	1.67
MTVAHLIECLLSKVAAL [RPB2]	2.01
KFDIIIVDTSGRHHQEE [SRP54]	2.94
SGIRLIEPELFNGYNPE [FAS2]	2.89
SKLSKNISFYKLHVNWN [SIN4]	1.79
EWDLYPQGFSSVERGRK [REC8]	3.54
RLAKSTENEIPNLIEKM [BRR2]	1.5
WRVREASTSALLQLIQS [ECM29]	1.41
TKNIPITHRDLHYDKDY [SSN8]	2.87
AAAVSGNNASDEPSRKK [SSN3]	3.05
TARRNVSGDAAALFRLH [SWI3]	2.98
GLSMLAKLKELAEDVDD [RPC31]	3.31
LDGKFSLFHTAVSVANG [RPN2]	2.03
GQGAFGNMCRGGRMFAP [RPL4A]	3.06

* * *

EXPERIMENTAL DETAILS: protein stability index of a GFP-peptide fusion (yeast GPS) (PSI 1-4); higher = more stable; sorted into four equal gates, so the index is relative within each strain
MEASUREMENT CONDITIONS: san1∆
Each record's protein stability index is compared with category 1 = under 2, category 2 = from 2 up to 3, category 3 = 3 and over to give its class.

DLETLTMHTKTYAAEIA [RPL32]	category 2
AIHIFESYYNWKYNNFL [YML103C/NUP188]	category 1
PPSLKIIDGPKALILAP [PRP28]	category 1
EDFDVEHFSDEETYEEK [RPO26]	category 3
PSNSTTTLHGPGFQLPN [SRB8]	category 2
QFELLSRRWRQRKNIQS [BRR2]	category 1
EIMYTGVSISVSFNSKQ [SMC3]	category 2
AKCNSLLQLKYFSNKTS [POP5]	category 1
FDDRGDVKVIMATNKIE [RPT2]	category 3
KLKRNSDRREHDEKLSD [LIN1]	category 3
INYAFSMDEEFKNMDCI [SIR3]	category 3
PANAEPQAVTITSIMDD [ITC1]	category 2
MRILPRETDPLVYNMTS [RPT4]	category 3
NGTVNNNSALSNVNSDI [RPT3]	category 1
NSNGIAMASLYLTGGQQ [SMD1]	category 2
SILEHSGIRLIEPELFN [FAS2]	category 2
QEQITLYDHWDKYHEQW [SSN8]	category 2
PHDLIIGTADIFIRQLK [BRR2]	category 2
IGIPVNKASLAQYEVLA [QCR2]	category 1
KREKRVFLKHSLSIKLA [RPN6]	category 2

* * *

Each item that follows carries a reported protein stability index.
EXPERIMENTAL DETAILS: protein stability index of a GFP-peptide fusion (yeast GPS) (PSI 1-4); higher = more stable; sorted into four equal gates, so the index is relative within each strain
MEASUREMENT CONDITIONS: pdr5∆
MEASURED METRIC: protein stability index

QPKGVILYGPPGTGKTL [RPT6]	2.91
IGLDTQQVEGKLSQMIL [RPN6]	3.05
SIQPIESNIKMTLEDNN [SSN2]	3.08
NMLLDPAANESEVANNG [RRP42]	2.74
TFAVILFLIIQCYKIYD [YMR129W/POM152]	1.22
NEPAARLGSEADAKAFL [FAS2]	3.42
GRLDRKVEIPLPNEAGR [RPT4]	3.27
TKVLQFAAKQRQELQMQ [SNF2]	2.71
KQFFQMTPLLVNCLELL [PCI8]	1.32
THSKLFADKKRDCIDIS [PRP8]	3.2
DWIRFVSTKTNEYRLAF [RPL22A]	2.17
SDSIELLKQYPKDSSST [YJR042W/NUP85]	2.77
TPAFGSNNTGNTAFGNS [YJL041W/NSP1]	3.13
HKNERRVLEIQTSLVRM [SKI6]	2.63
KLNVVGWFHSHPGYDCW [RRI1]	2.38
IQQVVEYADNDEDKFKK [PRP28]	3.03
KKVSRRNARAARAAKIA [RPL13B]	2.65
DEVTIRRTVGLKKDDYQ [SMC3]	2.53
LIENCKQVLDVDPVYKD [FAS2]	3.21
LNVKCTRNPDAPKGSTD [RPC40]	3.1
LTLKHRQNKVQHQRIVA [RPN10]	1.97
RKNRYVILQSDLEEAYA [RPT3]	2.23
NQSAYEWNGKSFQKKSN [ISW2]	3.12
EGKRIAFGFVDRTLPHF [RPO21]	2.98
LVPTASFFIASQLQEQF [FAS1]	1.88
SDIKQGYTQHGGLRPFG [PRE9]	2.53
NDYLEKHSVTEYIFEAH [CDC53]	2.79
YVRAKFLDYTTDNVSMY [PRP8]	2.73
MLRRHAAPPSTNFEILN [DIS3]	1.8
QSTPVLLNHGERAELET [RPN1]	2.31
KTSLSIKVENLNDTTEK [SMC2]	2.97
ESWANQLTVCGAIIGWT [FAS2]	1.3
IVGKSNVLVTMPVAPTM [YMR129W/POM152]	2.56
KNGAQDLVLQILEDTAT [RRI2]	3.3
SKLEGTINKAVQVKVLG [ESC2]	1.93
RLDNLQDIKKAKRVENF [DSN1]	1.42
HYGNEHIRRMVPLAMGI [RPN1]	1.33
KTAMAELALLNHWRQNK [BRR2]	1.79
QFELLSRRWRQRKNIQS [BRR2]	1.92
QEQGSFQHILRLLNTNV [RPS18A]	3.06
GLIMLNLQPASVINNYL [NUT1]	1.5
EDLLHYIEEKHPTIYES [POP4]	3.4
EELKNMFLYILKHLEEM [RRI2]	1.93
TLFSSIEPQVINYLALN [ECM29]	2.64
DYVNKTNSHLPAGKQVE [FAS1]	3.57
RDVMCTDGVIGSRTTTN [RPO31]	3.48
KQQGVGLPTDAYVAIEQ [RPN8]	2.7
EEYKKSLYAYCHSKLRG [GRR1]	2.31
DGLLEYLEDIIGTANYK [SMC4]	2.53
LGPGIYCDPNTQEIRPV [RRP40]	2.78
GKLAKPRQLHNTHWGLV [RPB2]	2.84
